For reference, peak area of metabolite as % of that of M5 measured on human liver microsomes:

Example results:
Data request: Which measured peak area of metabolite as % of that of M5 belongs to COc1ccc(Cl)cc1C(=O)NCCc1ccc(S(=O)(=O)NC(=O)N[C@H]2CCC[C@@H](O)C2)cc1 (relative stereo) [M2b] , tested on human liver microsomes?
Data returned: ~43%

Data request: Which measured peak area of metabolite as % of that of M5 belongs to COc1ccc(Cl)cc1C(=O)NCCc1ccc(S(=O)(=O)NC(=O)N[C@@H]2CCCC[C@H]2O)cc1 (relative stereo) [M4, 2-trans-hydroxycyclohexyl glyburide] , tested on human liver microsomes?
Data returned: ~8%

Then there is this molecule:
Data request: Which measured peak area of metabolite as % of that of M5 belongs to COc1ccc(Cl)cc1C(=O)NCCc1ccc(S(=O)(=O)NC(=O)NC2CCCC(O)C2)cc1 (stereo not drawn) [M3, 3-trans-hydroxycyclohexyl glyburide] , tested on human liver microsomes?
Data returned: ~16%
